- TEST_PROTOCOL: Drying rate of solvent impregnated in standard cotton samples at room temperature
- Assay type: physicochemical
- APPLIED_CONDITIONS: dried for 8 hours, room temperature (25° C.), relative humidity of 30%
MEASURED_ENDPOINT: Drying rate (%)

• CC(C)CC1(C)OCC(CO)O1 (stereo not drawn) = 85.25
• C[Si]1(C)O[Si](C)(C)O[Si](C)(C)O[Si](C)(C)O[Si](C)(C)O1 = 100
• ClC(Cl)=C(Cl)Cl = 100

###

- TEST_PROTOCOL: Solubility in water
- Type: physicochemical
- APPLIED_CONDITIONS: result in words
MEASURED_ENDPOINT: Solubility (20° C.)

• CCC1(C)OCC(CO)O1 (stereo not shown) [Example 2, Glycerol-Methyl Ethyl Ketone Ketal] = soluble
• CCCC1OCC(CO)O1 (stereo not shown) [Example 4, Glycerol-Butylaldehyde Acetal] = soluble
• CC1(C)OCC(CO)O1 (stereo not shown) [Example 1, Acetone Glycerol] = soluble

###

- TEST_PROTOCOL: Drying rate of solvent impregnated in standard cotton samples at room temperature
- Format: physicochemical
- APPLIED_CONDITIONS: dried for 8 hours, room temperature (25° C.), relative humidity of 30%
MEASURED_ENDPOINT: Drying rate (%)

- COCC(CO)OC (stereo not drawn): 95.29%
- CCCC1OCC(CO)O1 (stereo not drawn): 90.3%
- O: 100%
- COCC(O)CO (stereo not drawn): 10.53%
- CCC1(C)OCC(CO)O1 (stereo not drawn): 100%
- CC1(C)OCC(CO)O1 (stereo not drawn): 100%
